# Test system: T-47D breast
# ASSAY_METHOD_TEXT: NCI-60 one-dose screen, 48 h (100 = growth as untreated, 0 = no growth, -100 = all killed)
# CONDITIONS: 10 µM unless noted
Compounds without any hit were thinned out: in the full panel of roughly 83,000, 20% have a hit.
Listing: growth of selected molecules

[
  {
    "MOLECULE": "COc1cc2c(cc1OCCCCCCN1CCN(c3ncnc4ccccc34)CC1)N=CC1CCCN1C2=O (centres undefined)",
    "ASSAYED_SYSTEM": "T-47D breast",
    "growth (%)": 6.98
  },
  {
    "MOLECULE": "COc1ccc2c(CCC(c3ccccc3)c3ccccc3)c3[n+](cc2c1OC)CCc1cc2c(cc1-3)OCO2",
    "ASSAYED_SYSTEM": "T-47D breast",
    "growth (%)": 5.67
  },
  {
    "MOLECULE": "CN1CCN(CCOc2cc(OC3CCOCC3)c3c(Nc4c(Cl)ccc5c4OCO5)ncnc3c2)CC1",
    "ASSAYED_SYSTEM": "T-47D breast",
    "growth (%)": -14.3
  },
  {
    "MOLECULE": "COc1cc2ncnc3c2cc1OCCCCCN(C)Cc1ccc(Br)cc1N3",
    "ASSAYED_SYSTEM": "T-47D breast",
    "growth (%)": 4.78
  },
  {
    "MOLECULE": "N#CC[C@H](C1CCCC1)n1cc(-c2ncnc3[nH]ccc23)cn1",
    "ASSAYED_SYSTEM": "T-47D breast",
    "growth (%)": 72
  },
  {
    "MOLECULE": "Cc1ccc(NC(=O)c2ccc(CN3CC[C@H](N(C)C)C3)c(C(F)(F)F)c2)cc1Nc1nccc(-c2cncnc2)n1",
    "ASSAYED_SYSTEM": "T-47D breast",
    "growth (%)": -58.9
  },
  {
    "MOLECULE": "Clc1ccc2c(NCCCNCc3ccc4c(c3)OCO4)ccnc2c1",
    "ASSAYED_SYSTEM": "T-47D breast",
    "growth (%)": -0.471
  },
  {
    "MOLECULE": "NC1(c2ccc(-c3nc4ccn5c(=O)[nH]nc5c4cc3-c3ccccc3)cc2)CCC1",
    "ASSAYED_SYSTEM": "T-47D breast",
    "growth (%)": -70.4
  },
  {
    "MOLECULE": "C[C@@]1(C(=O)Nc2ccc(F)nc2)CCCN1c1nc(Nc2cc(C3CC3)[nH]n2)c2cccn2n1",
    "ASSAYED_SYSTEM": "T-47D breast",
    "growth (%)": 7.7
  },
  {
    "MOLECULE": "O=C1C=CC2(NN=C(c3ccccc3)N2c2cccc(Cl)c2)C(Cl)=C1 (centres undefined)",
    "ASSAYED_SYSTEM": "T-47D breast",
    "growth (%)": 37.9
  },
  {
    "MOLECULE": "O=C(Nc1cn[nH]c1-c1nc2ccc(CN3CCOCC3)cc2[nH]1)NC1CC1",
    "ASSAYED_SYSTEM": "T-47D breast",
    "growth (%)": 36.7
  },
  {
    "MOLECULE": "CCOC(=O)C1=C(C)N=C2Sc3cccc(OC)c3N2[C@H]1c1ccccn1",
    "ASSAYED_SYSTEM": "T-47D breast",
    "growth (%)": 96.5
  },
  {
    "MOLECULE": "O=S1(=O)OC(c2cc(Cl)c(O)c(Br)c2)(c2cc(Cl)c(O)c(Br)c2)c2ccccc21",
    "ASSAYED_SYSTEM": "T-47D breast",
    "growth (%)": 114
  },
  {
    "MOLECULE": "ClCc1ccc(-c2ccc(Cn3cnc4nc(Cl)nc(Cl)c43)cc2)cc1",
    "ASSAYED_SYSTEM": "T-47D breast",
    "growth (%)": -10.5
  },
  {
    "MOLECULE": "O=C(Cn1ccnc1)Nc1ccc(-c2nc3ccccc3s2)cc1",
    "ASSAYED_SYSTEM": "T-47D breast",
    "growth (%)": 51.4
  },
  {
    "MOLECULE": "COc1cc(OC)c(C(=O)/C=C/c2cc3c(cc2OCc2ccccc2)OC(C)(C)CC3)cc1CC=C(C)C",
    "ASSAYED_SYSTEM": "T-47D breast",
    "growth (%)": 42.3
  },
  {
    "MOLECULE": "COC(=O)[C@]12CC[C@@H](C)[C@H](C)[C@@H]1C1=CC[C@@H]3[C@@]4(C)C[C@@H](OC(=O)/C=C/c5ccccc5)[C@H](O)[C@@](C)(CO)[C@@H]4[C@H](O)C[C@@]3(C)[C@]1(C)CC2",
    "ASSAYED_SYSTEM": "T-47D breast",
    "growth (%)": 13.2
  },
  {
    "MOLECULE": "CCCCn1c(C)nc2ccc(Nc3nc(N4CCN(C)CC4)nc4nc[nH]c34)cc21",
    "ASSAYED_SYSTEM": "T-47D breast",
    "growth (%)": 80.3
  },
  {
    "MOLECULE": "CCn1c(-c2nonc2N)nc2c(C#CC(C)(C)O)ncc(OC[C@H]3CCCNC3)c21",
    "ASSAYED_SYSTEM": "T-47D breast",
    "growth (%)": 66.7
  }
]
